src = patent EP2253324A1

- System Tested: Angiotensin-converting enzyme (Oryctolagus cuniculus, UniProt P12822)
- Sequence (P12822 34-1310): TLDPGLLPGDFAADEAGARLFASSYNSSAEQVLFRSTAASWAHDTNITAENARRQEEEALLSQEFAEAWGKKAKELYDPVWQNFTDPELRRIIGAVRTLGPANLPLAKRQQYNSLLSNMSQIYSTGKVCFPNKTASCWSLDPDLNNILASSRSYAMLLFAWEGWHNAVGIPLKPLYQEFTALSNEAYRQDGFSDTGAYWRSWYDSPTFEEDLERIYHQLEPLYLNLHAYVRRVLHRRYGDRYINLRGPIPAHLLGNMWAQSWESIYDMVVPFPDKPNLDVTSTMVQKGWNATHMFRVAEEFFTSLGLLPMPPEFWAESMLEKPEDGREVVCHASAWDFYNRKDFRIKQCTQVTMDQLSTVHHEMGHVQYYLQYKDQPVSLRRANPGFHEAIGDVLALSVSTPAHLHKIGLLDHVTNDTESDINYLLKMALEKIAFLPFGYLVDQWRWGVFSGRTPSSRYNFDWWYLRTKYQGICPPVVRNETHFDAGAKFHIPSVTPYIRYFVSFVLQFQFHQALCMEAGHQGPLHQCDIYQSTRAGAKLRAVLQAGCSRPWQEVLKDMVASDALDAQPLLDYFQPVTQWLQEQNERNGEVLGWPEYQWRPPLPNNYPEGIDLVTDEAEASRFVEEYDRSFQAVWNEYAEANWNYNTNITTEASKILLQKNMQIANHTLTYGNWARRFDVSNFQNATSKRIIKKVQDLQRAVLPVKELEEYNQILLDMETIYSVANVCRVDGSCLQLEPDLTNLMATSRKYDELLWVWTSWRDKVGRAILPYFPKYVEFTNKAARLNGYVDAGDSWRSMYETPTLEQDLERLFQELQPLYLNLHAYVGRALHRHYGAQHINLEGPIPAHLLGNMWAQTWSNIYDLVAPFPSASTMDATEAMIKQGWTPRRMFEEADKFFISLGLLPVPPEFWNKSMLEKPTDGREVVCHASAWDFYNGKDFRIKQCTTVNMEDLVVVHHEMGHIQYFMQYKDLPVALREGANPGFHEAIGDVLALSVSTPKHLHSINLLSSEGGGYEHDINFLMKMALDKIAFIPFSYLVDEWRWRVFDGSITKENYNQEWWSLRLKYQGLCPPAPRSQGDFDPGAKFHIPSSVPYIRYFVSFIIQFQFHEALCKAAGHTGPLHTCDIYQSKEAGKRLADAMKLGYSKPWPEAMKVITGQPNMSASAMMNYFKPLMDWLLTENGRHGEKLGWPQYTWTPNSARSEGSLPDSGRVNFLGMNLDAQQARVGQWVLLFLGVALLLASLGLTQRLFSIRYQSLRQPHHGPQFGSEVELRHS
- Assay Explanation: ACE-inhibitory activity, spectrophotometric assay (Cushman & Cheung, modified)
- Type: biochemical
- Test Settings: synthetic peptides, values in text; read-out: IC50
pIC50: −log10 of the molar value. Where no end group is shown, it is not given here.
Measured pIC50, listed per entry.

YQKFPQY [YQKFPQY]    > 4.70

Entry under test: AYFYPEL [AYFYPEL] . Its pIC50 was > 4.70
